assay: RP, Waters XBridge C18, 50 × 2.1 mm, 3.5 µm, 30 °C, 0.2 mL/min, estimated dead time 0.55 min; A: water + 0.1% formic acid, pH 3; B: methanol + 0.1% formic acid, pH 3; gradient (min/%B) 0/10 4/50 17/95 25/95 25.1/10 30/10; settings: stereoisomer not certain
Parameter: LC retention time (min)
The figure you give is taken to be in min; do not add the unit.

Compound | Unit Symbol | LC retention time
CCNc1nc(Cl)nc(NC(C)CC)n1 (stereo not given) [Sebuthylazine] | min | 9.8
CC(C)(C)c1n[nH]c(=O)n(N)c1=O [Metribuzin-diketo] | min | 5.9
CCNc1nc(NC(C)(C)C)nc(OC)n1 [Terbumeton] | min | 6.7
CS(=O)(=O)c1ccc(C(=O)C2C(=O)CCCC2=O)c(Cl)c1 [Sulcotrione] | min | 6.8

Briefly, LC retention time measured for CCCCCCCCCC[N+](C)(C)[O-] [DDAO] : 10.4

Briefly, LC retention time measured for CCOC(=O)C1CC(=O)C(=C(O)C2CC2)C(=O)C1 (stereo not given) [Trinexapac-ethyl] : 8.9

Briefly, LC retention time measured for O=S(=O)(O)NC1CCCCC1 [Cyclamate] : 3.6

Briefly, LC retention time measured for CC(C)c1ccc(N)cc1 [4-Isopropylaniline] : 5.2

Briefly, LC retention time measured for CCCc1nc2c(C)cc(-c3nc4ccccc4n3C)cc2n1Cc1ccc(-c2ccccc2C(=O)O)cc1 [Telmisartan] : 9.2

Briefly, LC retention time measured for CC1(C)C(=O)Oc2ccc(OS(C)(=O)=O)cc21 [Ethofumesate-2-keto] : 6

Briefly, LC retention time measured for COc1nc(C)nc(N)n1 [2-Methyl-4-amino-6-methoxy-s-triazine] : 1.7

Briefly, LC retention time measured for CNC(=O)Nc1ccc(C(C)C)cc1 [Isoproturon-monodemethyl] : 8.6

Briefly, LC retention time measured for O=C(O)C=C(F)C(F)(F)C(F)(F)C(F)(F)C(F)(F)C(F)(F)C(F)(F)C(F)(F)F [8:2 fluorotelomer unsaturated carboxylic acid] : 16.1
